Recorded values, source ChEMBL document CHEMBL3407403.

tested on: HepG2; experiment: Growth inhibition of human HepG2 cells after 72 hrs by MTT assay; type: functional, cell-based; settings: HepG2, 72 h
pIC50: −log10 of the molar value.
EXPERIMENTAL ENDPOINT: pIC50

line_notation=C=CCc1cc(O)c(O)c(CN2CCNCC2)c1 measured=4.70
line_notation=C=CCc1cc(O)c(O)c(CN2CCN(c3ccccc3O)CC2)c1 measured=4.80
line_notation=C=CCc1cc(O)c(O)c(CN2CCC(Cc3ccccc3)CC2)c1 measured=4.66

---

experiment: Growth inhibition of human MIAPaCa2 cells at 50 uM after 72 hrs by MTT assay; format: functional; conditions: MIA PaCa-2, 72 h, read-out: GI
EXPERIMENTAL ENDPOINT: inhibition of growth at 50 µM (%)
Numbers only; they are read as %.

// solved cases for inhibition of growth at 50 µM follow
line_notation=C=CCc1ccc(OCc2cn(-c3cc(OC)c(OC)c(OC)c3)nn2)c(O)c1 experimental_endpoint="inhibition of growth at 50 µM" measured=49.8
line_notation=C=CCc1cc(O)c(O)c(CN2CCNCC2)c1 experimental_endpoint="inhibition of growth at 50 µM" measured=85.6
line_notation=C=CCc1ccc(OCc2cn(-c3ccccc3Cl)nn2)c(O)c1 experimental_endpoint="inhibition of growth at 50 µM" measured=57.7

Could you tell me which inhibition of growth at 50 µM is on file for C=CCc1cc(O)c(O)c(CN2CCC(C)CC2)c1 ? 90.6

Proceed to C=CCc1ccc(OCc2cn(-c3ccccc3CO)nn2)c(O)c1 52.1

Proceed to C=CCc1ccc(OCc2cn(-c3cccc(C#N)c3)nn2)c(O)c1 41.6

Proceed to C=CCc1cc(O)c(O)c(CN2CCC(CO)CC2)c1 38.6

Proceed to C#CCOc1ccc(CC=C)cc1O 30.3

Proceed to C=CCc1ccc(OCc2cn(-c3cccc([N+](=O)[O-])c3)nn2)c(O)c1 58.8

Proceed to C=CCc1cc(O)c(O)c(CN2CCC(Cc3ccccc3)CC2)c1 90.9

Proceed to C=CCc1ccc(OCc2cn(-c3ccc(Br)cc3)nn2)c(O)c1 47.3

Proceed to C=CCc1cc(O)c(O)c(CN2CCN(C)CC2)c1 69.5

---

# inhibition of growth at 30 µM per entry
experiment: Growth inhibition of human MIAPaCa2 cells at 30 uM after 72 hrs by MTT assay; type: functional; conditions: MIA PaCa-2, 72 h, read-out: GI
Numbers only; they are read as %.

// solved cases for inhibition of growth at 30 µM follow
compound=C=CCc1cc(O)c(O)c(CN2CCN(C)CC2)c1 measured=46.8
compound=C=CCc1ccc(OCc2cn(-c3ccc(C#N)cc3)nn2)c(O)c1 measured=39.3
compound=C=CCc1ccc(OCc2cn(-c3ccccc3Cl)nn2)c(O)c1 measured=46.6
compound=C=CCc1ccc(OCc2cn(-c3ccc(OC)cc3)nn2)c(O)c1 measured=62.3

Could you tell me which inhibition of growth at 30 µM is on file for C=CCc1ccc(OCc2cn(-c3cccc([N+](=O)[O-])c3)nn2)c(O)c1 ? 42.9

Proceed to C=CCc1ccc(O)c(O)c1 [HYDROXYCHAVICOL] 41.7

Proceed to C=CCc1cc(O)c(O)c(CN2CCNCC2)c1 82.8

Proceed to C=CCc1cc(O)c(O)c(CN2CCC(Cc3ccccc3)CC2)c1 88.9

Proceed to C=CCc1cc(O)c(O)c(CN2CCC(C)CC2)c1 91.5

Proceed to C=CCc1ccc(OCc2cn(-c3ccc(C(=O)c4ccccc4)cc3)nn2)c(O)c1 40.1

Proceed to C#CCOc1ccc(CC=C)cc1O 27.4

---

experiment: Growth inhibition of human MIAPaCa2 cells at 30 uM after 72 hrs by MTT assay; type: functional; details: MIA PaCa-2, 72 h, read-out: GI
# inhibition of growth at 30 µM per entry
Numbers only; they are read as %.

Could you tell me which inhibition of growth at 30 µM is on file for C=CCc1cc(O)c(O)c(CN2CCOCC2)c1 ? 54.4

Proceed to C=CCc1cc(O)c(O)c(CN2CCN(c3ccc(C(C)=O)cc3)CC2)c1 86.2

Proceed to C=CCc1ccc(OCc2cn(-c3ccccc3CO)nn2)c(O)c1 39.6

Proceed to C=CCc1cc(O)c(O)c(CN2CCN(c3ccccc3O)CC2)c1 88.7

Proceed to C=CCc1ccc(OCc2cn(-c3cccc(C#N)c3)nn2)c(O)c1 26.6

Proceed to C=CCc1ccc(OCc2cn(-c3ccc(Br)cc3)nn2)c(O)c1 43.3

---

assay: Growth inhibition of human MIAPaCa2 cells at 50 uM after 72 hrs by MTT assay; assay type: functional; details: MIA PaCa-2, 72 h, read-out: GI
# inhibition of growth at 50 µM per entry
Numbers only; they are read as %.

// solved cases for inhibition of growth at 50 µM follow
molecule=C=CCc1cc(O)c(O)c(CN2CCN(c3ccccc3O)CC2)c1 experimental_endpoint="inhibition of growth at 50 µM" measured=89.9
molecule=C=CCc1ccc(OCc2cn(-c3ccc(C(=O)c4ccccc4)cc3)nn2)c(O)c1 experimental_endpoint="inhibition of growth at 50 µM" measured=53.7

Could you tell me which inhibition of growth at 50 µM is on file for C=CCc1ccc(O)c(O)c1 [HYDROXYCHAVICOL] ? 42.8

Proceed to C=CCc1ccc(OCc2cn(-c3ccc(C#N)cc3)nn2)c(O)c1 45.9

---

experiment: Growth inhibition of human MIAPaCa2 cells at 30 uM after 72 hrs by MTT assay; format: functional; details: MIA PaCa-2, 72 h, read-out: GI
EXPERIMENTAL ENDPOINT: inhibition of growth at 30 µM (%)
Numbers only; they are read as %.

line_notation=C=CCc1cc(O)c(O)c(CN2CCC(CCO)CC2)c1 experimental_endpoint="inhibition of growth at 30 µM" measured=54.4

Could you tell me which inhibition of growth at 30 µM is on file for C=CCc1cc(O)c(O)c(CN2CCC(CO)CC2)c1 ? 34.1

Proceed to C=CCc1ccc(OCc2cn(-c3cc(OC)c(OC)c(OC)c3)nn2)c(O)c1 41.1
